# credit: ChEMBL document CHEMBL1126867

System: Human rhinovirus sp.
PROCEDURE DETAILS: Minimum inhibitory concentration which inhibits 80% of serotypes was determined
Format: functional
QUANTITY MEASURED: MIC80 (µM)

Before answering, review these 4 worked examples.
RECORD SMILES | OUTPUT UNIT | ENDPOINT RESULT
Cc1cc(-c2nnn(C)n2)cc(C)c1OCCCc1cc(CCCO)no1 | µM | 0.4
Cc1cc(-c2nnn(C)n2)cc(C)c1OCCCc1cc(C2CC2)no1 | µM | 0.48
Cc1cc(CCCCCOc2c(C)cc(-c3nnn(C)n3)cc2C)on1 | µM | 0.39
CCCn1nnc(-c2cc(C)c(OCCCc3cc(C)no3)c(C)c2)n1 | µM | 1.27

A: CCOc1cc(CCCOc2c(C)cc(-c3nnn(C)n3)cc2C)on1
B: Cc1cc(CCCCCOc2c(Cl)cc(-c3nnn(C)n3)cc2Cl)on1
Query: # argmax over MIC80 for candidates A and B Label of pick, please.
Result: A
(A: 0.7 µM, B: 0.25 µM)

A: CCCCc1cc(CCCOc2c(C)cc(-c3nnn(C)n3)cc2C)on1
B: CCCc1cc(CCCOc2c(C)cc(-c3nnn(C)n3)cc2C)on1
C: Cc1cc(-c2nnn(C)n2)cc(C)c1OCCCCCc1cc(CO)no1
Query: Please list these compounds in decreasing order of MIC80. Reply with the labels, ordered as the question asks.
Result: C, A, B
(C: 1.59 µM, A: 0.54 µM, B: 0.2 µM)

====

Tested on: Human rhinovirus 1A
PROCEDURE DETAILS: In vitro antiviral activity against human rhinovirus-1A using plaque reduction assay; not active
Assay type: functional, organism-based
The source made the active and inactive calls. The calls are words filed in the database; no cut-off is given here.

MOLECULE | MIC50
CCC(O)c1cc(CCCOc2c(C)cc(-c3nnn(C)n3)cc2C)on1 (centres undefined) | inactive
Cc1cc(COc2c(C)cc(-c3nnn(C)n3)cc2C)on1 | inactive
COC(=O)Cn1nnc(-c2cc(C)c(OCCCCCc3cc(C)no3)c(C)c2)n1 | inactive
Cc1cc(CCCCCOc2c(C)cc(-c3nnn(CCO)n3)cc2C)on1 | inactive

====

Tested on: rhinovirus B14
PROCEDURE DETAILS: In vitro antiviral activity against human rhinovirus-14 using plaque reduction assay
Format: functional, human rhinovirus type 14
APPLIED CONDITIONS: Rhinovirus B
QUANTITY MEASURED: MIC50 (µM)

Before answering, review these 3 worked examples.
RECORD SMILES | QUANTITY MEASURED | ENDPOINT RESULT
CCCn1nnc(-c2cc(C)c(OCCCc3cc(C)no3)c(C)c2)n1 | MIC50 | 1.6
Cc1cc(CCCCCCCOc2c(C)cc(-c3nnn(C)n3)cc2C)on1 | MIC50 | 3
Cc1cc(CCCCCOc2c(C)cc(-c3nnn(C)n3)cc2C)on1 | MIC50 | 0.45

1: Cc1cc(-c2nnn(C)n2)cc(C)c1OCCCc1cc(CCO)no1
2: Cc1cc(-c2nnn(C)n2)cc(C)c1OCCCCCc1cc(C(=O)O)no1
3: Cc1cc(-c2nnn(C)n2)cc(C)c1OCCCCCc1cc(COCOCCO)no1
Query: Please list these compounds in decreasing order of MIC50. Reply with the labels, ordered as the question asks.
Result: 2, 1, 3

====

System: rhinovirus B14
PROCEDURE DETAILS: In vitro antiviral activity against human rhinovirus-14 using plaque reduction assay
Assay type: functional, human rhinovirus type 14
APPLIED CONDITIONS: Rhinovirus B
QUANTITY MEASURED: MIC50 (µM)

1: Cc1cc(CCCCOc2c(C)cc(-c3nnn(C)n3)cc2C)on1
2: Cc1cc(CCCCCOc2c(C)cc(-c3nnn(CCO)n3)cc2C)on1
3: CCC(O)c1cc(CCCOc2c(C)cc(-c3nnn(C)n3)cc2C)on1 (stereo not drawn)
Query: Put the above entries in order of falling MIC50. Reply with the labels, ordered as the question asks.
Result: 2, 1, 3
(2: 4.35 µM, 1: 2.43 µM, 3: 0.13 µM)

====

System: Human rhinovirus sp.
PROCEDURE DETAILS: Minimum inhibitory concentration which inhibits 80% of serotypes was determined
Type: functional
QUANTITY MEASURED: MIC80 (µM)

RECORD SMILES | OUTPUT UNIT | ENDPOINT RESULT
Cc1cc(-c2nnn(C)n2)cc(C)c1OCCCc1cc(C(C)C)no1 | µM | 0.73
Cc1cc(CCCCOc2c(C)cc(-c3nnn(C)n3)cc2C)on1 | µM | 0.66
CCn1nnc(-c2cc(C)c(OCCCCCc3cc(C)no3)c(C)c2)n1 | µM | 0.65
